Where do these numbers come from? They come from ChEMBL document CHEMBL1146217.

System: Salmonella typhimurium
Assay: Antibacterial activity against Salmonella Typhimurium after 16 to 20 hrs by broth microdilution method
Type: functional, Salmonella enterica subsp. enterica serovar Typhimurium
Settings: Salmonella enterica
Measured Parameter: MIC

**Q:** For the compound CCCCCCCCCCCCC#Cc1cn([C@@H]2O[C@H](CO)[C@@H](O)[C@H]2F)c(=O)[nH]c1=O , report MIC.
**A:** > 100 µg/mL

**Q:** Return the recorded MIC value; entry: NNC(=O)c1ccncc1 [ISONIAZID]
**A:** > 100 µg/mL

**Q:** Look up and report measured MIC for this entry: CCCCCCCCCCCC#Cc1cn([C@@H]2O[C@H](CO)[C@@H](O)[C@H]2F)c(=O)[nH]c1=O
**A:** > 100 µg/mL

---

Test system: Mycobacterium tuberculosis
Assay: Antimycobacterial activity against Mycobacterium tuberculosis H37Ra at 1ug/mL by microplate Alamar blue assay
Type: functional
Measured Parameter: inhibition at 1 µg/mL (%)
Note: unit % is implicit; provide only the numeric part.

**Q:** // fetch inhibition at 1 µg/mL for CCCCCCCCCCC#Cc1cn([C@@H]2O[C@H](CO)[C@@H](O)[C@H]2F)c(=O)[nH]c1=O ; system: Mycobacterium tuberculosis
**A:** 70

**Q:** Provide measured inhibition at 1 µg/mL on Mycobacterium tuberculosis for CCCCCCCCCCC#Cc1cn([C@@H]2O[C@H](CO)[C@@H](O)[C@@H]2O)c(=O)[nH]c1=O please.
**A:** 75

**Q:** Using Mycobacterium tuberculosis as the test system, report measured inhibition at 1 µg/mL of CCCCCCCCC#Cc1cn([C@@H]2O[C@H](CO)[C@@H](O)[C@H]2F)c(=O)[nH]c1=O .
**A:** 25

**Q:** Enter inhibition at 1 µg/mL (test system Mycobacterium tuberculosis) for CCCCCCCCCCCC#Cc1cn([C@@H]2O[C@H](CO)[C@@H](O)[C@H]2F)c(=O)[nH]c1=O
**A:** 90
